meta.source: patent US7741354B2

system: hQC (Homo sapiens)
Sequence (Q16769 29-361): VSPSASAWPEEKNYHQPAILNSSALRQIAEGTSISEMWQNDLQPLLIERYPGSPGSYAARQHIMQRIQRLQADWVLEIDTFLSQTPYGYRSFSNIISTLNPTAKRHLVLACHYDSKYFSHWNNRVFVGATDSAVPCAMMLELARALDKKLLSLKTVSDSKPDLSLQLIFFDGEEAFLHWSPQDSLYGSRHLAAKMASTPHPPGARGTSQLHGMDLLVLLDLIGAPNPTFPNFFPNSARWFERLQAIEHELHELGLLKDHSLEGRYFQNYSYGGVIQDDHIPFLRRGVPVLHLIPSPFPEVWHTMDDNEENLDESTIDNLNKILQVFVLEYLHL
experiment notes: Fluorometric (fluorescent) assay of hQC inhibition, IC50
Format: biochemical
measurement context: hQC inhibition; read-out: IC50
pIC50: −log10 of the molar value.
property label: pIC50

molecule="CCOC(=O)C1CCCCC1n1nnnc1C(Nc1ccc2[nH]cnc2c1)c1ccc(CC)cc1 (centres unmarked)" system="hQC (Homo sapiens)" value_reported=5.24
molecule="CCCOc1cccc(C(Nc2ccc3[nH]cnc3c2)c2nnnn2CC2CCCO2)c1 (centres unmarked)" system="hQC (Homo sapiens)" value_reported=5.40
molecule="c1ccc(C(c2ccccc2)n2nnnc2C(Nc2ccc3[nH]cnc3c2)c2cnc3ccccc3c2)cc1 (centres unmarked)" system="hQC (Homo sapiens)" value_reported=5.31
molecule="COC(=O)c1cccc(C(Nc2ccc3[nH]cnc3c2)c2nnnn2-c2ccc(C(C)(C)C)cc2)c1 (centres unmarked)" system="hQC (Homo sapiens)" value_reported=5.17
molecule="CCc1ccc(C(Nc2ccc3[nH]cnc3c2)c2nnnn2CC2CCCO2)s1 (centres unmarked)" system="hQC (Homo sapiens)" value_reported=5.07
molecule="Clc1ccc(Cn2nnnc2C(Nc2ccc3[nH]cnc3c2)c2ccc3nsnc3c2)cc1 (centres unmarked)" system="hQC (Homo sapiens)" value_reported=6.40
molecule="CSc1ccc(C(Nc2ccc3[nH]cnc3c2)c2nnnn2CC2CCCO2)cc1 (centres unmarked)" system="hQC (Homo sapiens)" value_reported=5.17
molecule="Oc1ccc(Cl)cc1C(Nc1ccc2[nH]cnc2c1)c1nnnn1C1CCCCC1 (centres unmarked)" system="hQC (Homo sapiens)" value_reported=5.24
molecule="CC(CC(Nc1ccc2[nH]cnc2c1)c1nnnn1-c1ccc(Oc2ccccc2)cc1)c1ccccc1 (centres unmarked)" system="hQC (Homo sapiens)" value_reported=5.17
molecule="C/C=C/C=C/C(Nc1ccc2[nH]cnc2c1)c1nnnn1CCc1cccs1 (centres unmarked)" system="hQC (Homo sapiens)" value_reported=5.24
molecule="Brc1ccc(C(Nc2ccc3[nH]cnc3c2)c2nnnn2-c2ccccc2OCc2ccccc2)cc1 (centres unmarked)" system="hQC (Homo sapiens)" value_reported=5.66
molecule="CC(C)(C)OC(=O)Cn1nnnc1C(Nc1ccc2[nH]cnc2c1)c1ccc2c(c1)OCO2 (centres unmarked)" system="hQC (Homo sapiens)" value_reported=5.66
molecule="C/C=C/C=C/C(Nc1ccc2[nH]cnc2c1)c1nnnn1CC1CCCO1 (centres unmarked)" system="hQC (Homo sapiens)" value_reported=5.07
molecule="CCOC(=O)C1CCCCC1n1nnnc1C(Nc1ccc2[nH]cnc2c1)c1ccc2c(c1)OCO2 (centres unmarked)" system="hQC (Homo sapiens)" value_reported=5.24
molecule="Cc1ccc(C(Nc2ccc3[nH]cnc3c2)c2nnnn2CCCN2CCCC2=O)cc1C (centres unmarked)" system="hQC (Homo sapiens)" value_reported=5.31
molecule="Brc1cc(Br)cc(C(Nc2ccc3[nH]cnc3c2)c2nnnn2-c2ccc(Oc3ccccc3)cc2)c1 (centres unmarked)" system="hQC (Homo sapiens)" value_reported=5.24
molecule="Brc1ccc(C(Nc2ccc3[nH]cnc3c2)c2nnnn2Cc2cccnc2)cc1 (centres unmarked)" system="hQC (Homo sapiens)" value_reported=5.40
